- TGT: biotinylated CD59 (Homo sapiens)
- Construct: Recombinant soluble human CD59 with an additional C-terminal cysteine residue
- Sequence (P13987 26-102 limits assumed): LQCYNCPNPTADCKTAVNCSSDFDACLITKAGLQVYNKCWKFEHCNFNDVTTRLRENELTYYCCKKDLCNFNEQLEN
- METHOD_SUMMARY: mRNA-display cyclic peptide screen against CD59-biotin, NGS abundance after 6th selection round
- ASSAY_CONDITIONS: raw NGS counts of peptide sequence, sequencing sample Seq I, sheet R6 (6th selection round)
- Description: To discover novel non‐protein CD59 ligands, we screened a library of 10^12 cyclic peptides against CD59 using mRNA‐display (Figure 2a).^[ [23], [24], [25], [26], [27], [28], [29] ^] Briefly, an mRNA library was designed in which the start codon was reprogrammed from Met to N‐chloroacetyl‐D‐Tyr (ClAc‐D‐Tyr), followed by 10–12 randomly encoded natural amino acids, a Cys residue, a (GlySer)3 linker, and a stop codon. […]
MEASURED_PROPERTY: Counts Seq I
Returns: the value as a bare number; no unit string appended.

Sample FVTGNRDHTRG ; Counts Seq I observed: 31986

Lab note: measured Counts Seq I of WIRGSRFYRVI was 1692

Per the record, VVRGGTAFRYE has Counts Seq I of 96

// field: Counts Seq I; key: CFARRLSASLGT ; value = 145

Record IIRGNRLTKYE . Reported Counts Seq I: 86

Sample CFNSRLHIGAV ; Counts Seq I observed: 181

Briefly, Counts Seq I measured for QWNRWYGMDEL : 1243

Reported Counts Seq I for FVRGDLHSVLG was 253

The reported Counts Seq I of the sequence CYGGRTFIYARS was 117

Entry GYLNECWYGLS , Counts Seq I reported as 441

Form field Counts Seq I, entry CFLYRNNPDSV : 303

Recorded Counts Seq I (sequence CFKKRLDTVST ): 91

Sure, the documented Counts Seq I for CFKHRLGTDSA is 423

Counts Seq I reported for this sequence CFARRLSASFGT : 4384

# Counts Seq I of CFVNRLRSAESR = 618

SWTWGNRSSARG has a reported Counts Seq I of 110

The recorded Counts Seq I for entry CIRGTPTTVWG equals 1692

// Counts Seq I value for FVTGNRNHTRG : 142

Counts Seq I measured on ISWGNGSLAFY = 643

In plain terms, SWTWGNGSSVRG has a documented Counts Seq I of 817

// Counts Seq I value for GRLNECHAIWP : 488

The sequence listed as EIRGALNWVRG shows Counts Seq I equal to 549

Entry CAWGNRHIAYY — recorded Counts Seq I = 800

Lab note: VIWGSRLATGG gave Counts Seq I of 109

Entry CFSRRTSVPNTT , Counts Seq I reported as 914

The recorded Counts Seq I for entry CFAGRLTIGAV equals 245

Memo: CFRNRVLEITST , reported Counts Seq I: 183

Lab book: Counts Seq I of SAWGNRQTQYY noted as 5037

The sequence identified as IALGDRTFSFG registered its Counts Seq I at 1603

For this sequence ( WTCHLRHDGPHA ), measured Counts Seq I is 8737

// sample LQPPDRSCLPKI , its Counts Seq I was 125

GET /value?item= CYGGRTFIYAWT &field=Counts Seq I returns 190

Please fill in: Counts Seq I reported for CYGGRTLIYAWS = 121

get_value(item= NTAWGNVAVAYF , readout=Counts Seq I) returns 183

Note to self: Counts Seq I recorded for CFRFRLNATSS was 329

Notebook: TFAHRVGSCQST , Counts Seq I read as 85

# sequence SAWGNRQIQYY ; its Counts Seq I = 30945

Record AVWGSAHDRWE , field Counts Seq I: 193

According to the records, this sequence HVFGNRFFTRG displays Counts Seq I of 135

For AVAGSRHWAWG the sequence record lists Counts Seq I as 171

For reference, reported Counts Seq I for TISGGRDYTRG stands at 4146

For this sequence ( HVFGNGSFTRG ), measured Counts Seq I is 137

# sequence LYGNRDYSFYRP ; its Counts Seq I = 707

# Counts Seq I of SSFREYNHLPCT = 2617

Record summary for FVTGNRDHARG : reported Counts Seq I = 126

Input CLRRSYEATSI . Output Counts Seq I: 88

Entry CEALLRRGWD — recorded Counts Seq I = 413

sequence CFAKRLSLDAL , Counts Seq I observed: 774

Please fill in: Counts Seq I reported for CYGGRTFIYEWS = 164

Record summary for FVFGNRHFRTE : reported Counts Seq I = 1785

Measured Counts Seq I, WRDRFDRCVL : 86

Per the records, this sequence ( CFAARLSNGDS ) has Counts Seq I equal to 1397

For this sequence ( CFSARATLDGGW ), measured Counts Seq I is 157

For LLGSSSYVKFWY the sequence record lists Counts Seq I as 1105

Lab note: measured Counts Seq I of TFRKRLTATCGT was 68

Summary for this sequence, FATGNRDHTRG : Counts Seq I is 117

Input LCAENPLRPR . Output Counts Seq I: 329

Measured Counts Seq I, FVAGNRDHTRG : 102

So, WSTGSSTFAAG ? Its Counts Seq I was 149

Noted for CFYTRIDAFST : its Counts Seq I reads 354

Counts Seq I for SSWAQVPCYS is 175

# sequence FVRGDQYSVLG ; its Counts Seq I = 247

Record summary for CFTLRLSQTSV : reported Counts Seq I = 682

Lab note: measured Counts Seq I of CYGGRTYIYAWS was 77

sequence FVTGNREHTRG , Counts Seq I observed: 110

What the record says about NSCPDWVRGSRT : Counts Seq I is 1002

Value of measured Counts Seq I for the entry CFRYRLGLTST : 271

Value of Counts Seq I reported for the sequence CYGNSHASWG is 2115

Kindly note the recorded Counts Seq I for SAWGNWQIQYY , which is 102
